These entries and their values trace back to paper PMC3242641.

- System: human PBM cells
- details: 4 h at 50 μM, PHA activated human PBM cells, 37 °C
measurementKind: Amount of intracellular nucleoside triphosphate (TP) detected

[N-]=[N+]=N[C@@H]1C[C@@H](n2cnc3c(Cl)ncnc32)O[C@H]1CO = no detectable TPs
[N-]=[N+]=N[C@@H]1C[C@@H](n2cnc3c(Cl)nc(N)nc32)O[C@H]1CO = no detectable TPs
